- Experimental details: qHTS for Inhibitors of the Aldehyde Dehydrogenase Family (ALDH1A2, ALDH1A3, ALDH2, ALDH3A1) (AID 2061307); further: nearly all actives have a fitted effect of over 50% in size
- Condition description: ALDH inhibition qHTS; series mostly up to 50.3 µM
Results filed as inconclusive are left out. Activity calls are given as the source filed them. The call rests on the fitted dose curve; in most records, active means well fitted inhibition curve with a large enough effect; inconclusive means small, poorly fitted or top-dose-only effect; inactive means no such curve, though single readings can be large or run the other way.
Tick one outcome: active, inactive

>  <Compound>
COc1cc(O)c(C(CC(=O)N2C[C@H](C)C[C@H](C)C2)c2ccc3c(c2)OCO3)c(OC)c1 (stereo not given in full)

>  <Class>
inactive

$$$$
>  <Compound>
COc1ccc(Cl)cc1Nc1cc(C)nc2nc(-c3ccccc3C)nn12

>  <Class>
inactive

$$$$
>  <Compound>
Cc1ccc(NC(=O)c2cc(-c3cccs3)on2)cc1C

>  <Class>
inactive

$$$$

Below: the item to evaluate.
// query Hi, sorry to bother you, what did the test record for `O=C(Nc1ccccc1C(=O)Nc1cccc(C(F)(F)F)c1)c1cccc([N+](=O)[O-])c1` ?
// result active
